Each recorded value in this set is attributed to paper PMC7249006.

Recorded IC50 values (human COX-2 (Homo sapiens, UniProt P35354)) are given below.
MEASUREMENT TYPE: IC50 (nM)

1. COc1ccc(/C=C2\SC(N/N=C/c3ccc(-n4nc(-c5ccccc5)ccc4=O)cc3)=NC2=O)cc1 [Compound 16b]
16.9
2. CCOC(=O)c1sc(N/N=C/c2ccc(-n3nc(-c4ccccc4)ccc3=O)cc2)nc1C [Compound 8]
24.2
3. O=C1N=C(N/N=C/c2ccc(-n3nc(-c4ccccc4)ccc3=O)cc2)S/C1=C\c1ccc(Cl)cc1 [Compound 16a]
22.2
4. O=C1N=C(NN=Cc2ccc(-n3nc(-c4ccccc4)ccc3=O)cc2)SC1=C1C(=O)Nc2ccccc21 [Compound 12]
17.1
5. O=C1CSC(=NN=Cc2ccc(-n3nc(-c4ccccc4)ccc3=O)cc2)N1c1ccccc1 [Compound 17]
17.7
